The following molecules are listed with their measured pIC50 values.
ASSAY_TARGET: SARM1 (Homo sapiens, UniProt Q6SZW1)
Construct: AviTag […]; made in house; host or cells: NRK1-HEK293T cells, transiently transfected; the clarified sonicated lysate was used without purification
Sequence (Q6SZW1 with tags, fused parts or gaps): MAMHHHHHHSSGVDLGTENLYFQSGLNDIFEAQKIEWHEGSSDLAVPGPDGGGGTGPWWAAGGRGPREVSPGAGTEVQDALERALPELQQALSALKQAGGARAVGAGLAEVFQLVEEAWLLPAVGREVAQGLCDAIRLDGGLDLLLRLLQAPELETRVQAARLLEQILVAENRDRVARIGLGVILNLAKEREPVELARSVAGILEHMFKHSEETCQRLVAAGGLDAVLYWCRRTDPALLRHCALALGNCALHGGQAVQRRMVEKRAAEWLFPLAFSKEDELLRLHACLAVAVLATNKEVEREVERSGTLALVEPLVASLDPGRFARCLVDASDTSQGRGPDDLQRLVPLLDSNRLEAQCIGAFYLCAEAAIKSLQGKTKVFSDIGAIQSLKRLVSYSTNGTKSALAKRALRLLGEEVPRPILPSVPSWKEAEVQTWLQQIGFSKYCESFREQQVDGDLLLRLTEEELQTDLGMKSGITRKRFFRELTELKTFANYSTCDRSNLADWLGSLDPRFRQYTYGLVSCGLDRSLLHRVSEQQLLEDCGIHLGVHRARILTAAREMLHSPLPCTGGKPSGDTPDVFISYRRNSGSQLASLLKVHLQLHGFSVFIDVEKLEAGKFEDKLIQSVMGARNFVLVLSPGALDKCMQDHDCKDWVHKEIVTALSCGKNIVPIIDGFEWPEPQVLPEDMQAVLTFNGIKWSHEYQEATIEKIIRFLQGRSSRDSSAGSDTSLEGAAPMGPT
ASSAY_REMARKS: ARM-SAM-TIR SARM1 IC50 assay (NADase activity, NAD+ cleavage)
Type: biochemical
EXPERIMENTAL_SETUP: ARM-SAM-TIR lysate 5 μg/mL from NRK1-HEK293T cells; 2 h pre-incubation with compound, 5 μM NAD+, 2 hr room temperature; NAD+ and ADPR by RapidFire mass spectrometry; read-out: SARM1 IC50
pIC50: −log10 of the molar value.

Exercise: Hello, please tell me recorded pIC50 for this one: Cn1cnc(C(=O)N[C@H]2CCCN(c3cc(C#N)c4cc(Br)ccc4n3)C2)c1 [Example 130]
Solution: > 5.30

Exercise: Kindly indicate its recorded pIC50. Item: N#Cc1cc(N2CCCC(c3ccccn3)C2)nc2ccc(Br)cc12 (stereo not drawn) [Example 150]
Solution: > 5.30

Ref: patent US12441719B2
